assay: Plasma pharmacokinetics in biliary cancer patients (LC-MS/MS, non-compartmental); assay type: in vivo, human; details: human, plasma, po, 200 mg, subject 1001; first dose 200 mg oral
experimental_readout: Cmax (ng/mL)
One number for each entry, in ng/mL.

Sample NC1(c2ccc(-c3nc4ccn5c(=O)[nH]nc5c4cc3-c3ccccc3)cc2)CCC1 ; Cmax observed: 106

* * *

test: Plasma pharmacokinetics in biliary cancer patients (LC-MS/MS, non-compartmental); format: in vivo, human; details: human, plasma, po, 200 mg, subject 1001; first dose 200 mg oral; read-out: Vz/F
experimental_readout: Vd/F (L)
Give bare numbers, in L.

Sample NC1(c2ccc(-c3nc4ccn5c(=O)[nH]nc5c4cc3-c3ccccc3)cc2)CCC1 ; Vd/F observed: 3270

* * *

assay: Plasma pharmacokinetics in biliary cancer patients (LC-MS/MS, non-compartmental); assay type: in vivo, human; conditions: human, plasma, po, 200 mg, subject 1004; first dose 200 mg oral; read-out: Tmax
experimental_readout: Tmax
I'd appreciate it if you wrote the number followed by its unit.

Sample NC1(c2ccc(-c3nc4ccn5c(=O)[nH]nc5c4cc3-c3ccccc3)cc2)CCC1 ; Tmax observed: 8 h

* * *

assay: Plasma pharmacokinetics in biliary cancer patients (LC-MS/MS, non-compartmental); format: in vivo, human; conditions: human, plasma, oral, 200 mg, day 8; 200 mg weekly; read-out: trough pre-dose average plasma concentration
experimental_readout: concentration at 8 day
I'd appreciate it if you wrote the number followed by its unit.

Sample NC1(c2ccc(-c3nc4ccn5c(=O)[nH]nc5c4cc3-c3ccccc3)cc2)CCC1 [MK-2206] ; concentration at 8 day observed: 14.7 ng/mL
